- Tested on: CP262
- protocol-description: qHTS profiling for inhibitors of Plasmodium falciparum proliferation (AID 504749); also: nearly all actives have a fitted effect of over 60% in size
- condition-set: P. falciparum in erythrocytes, SYBR Green DNA, 72 h; series mostly up to 28.7 µM
- Experimental: NIH National Institute of Allergy and Infectious Diseases [NIAID] NIH Chemical Genomics Center [NCGC] […] Because mature erythrocytes lack DNA, only Plasmodium-derived DNA is detected. NCGC Assay Protocol Summary: The SYBR Green viability assay was adapted from a method described previously (Plouffe et al., 2008). […] The following morning, fluorescence intensity at 485(14) nm excitation and 535(25) nm emission wavelengths was measured on an EnVision (Perkin Elmer) plate reader. […]
Results filed as inconclusive are left out. The source made the active and inactive calls. Calls follow the shape of the dose curve; as a rule, active = well fitted inhibition curve with a large enough effect; inconclusive = small, poorly fitted or top-dose-only effect; inactive = flat fitted curve, though single readings scatter.
Outcomes you can answer with include only these: y (active), n (inactive)

>  <compound>
CO/N=C(/C(=O)N[C@@H]1C(=O)N2C(C(=O)O)=C(CSc3cnns3)CS[C@H]12)c1csc(N)n1

>  <group>
n

$$$$
>  <compound>
C=CCn1c(=O)n(C2OC(CO)C(O)C2O)c2nc(N)[nH]c(=O)c21 (stereo not given)

>  <group>
n

$$$$
>  <compound>
CC1CN(c2c(F)c(N)c3c(=O)c(C(=O)O)cn(C4CC4)c3c2F)CC(C)N1 (stereo not given)

>  <group>
n

$$$$

Task item: I'd appreciate the recorded outcome for C=CC1CN2CCC1CC2[C@@H](O)c1ccnc2ccc(OC)cc12 (stereo not given in full) from this test.
Reply: y

Task item: Subsequent entry: CC(C)(C)C(=O)OCC(=O)C1CCC2C3CCC4=CC(=O)CCC4(C)C3CCC12C (stereo not given)
Reply: n

----------
- protocol-description: AP1 Signaling Pathway (AID 357);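 also: ME-180 reporter cells stimulated with EGF at its EC50 level; % is scaled to controls: 0 for no effect and ±100 for the full control effect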
- condition-set: ME-180 AP-1-bla reporter, EGF-induced, beta-lactamase ratio, 5 h; at 17.2 µM (top of the series) unless noted
Records with an inconclusive call do not appear.
property-measured: activity change, negative = inhibition (%)
Your answer is read as %, so omit the unit and give the number.

Some compounds with known activity change, negative = inhibition results, for comparison:
>  <compound>
COc1ccc(-c2nc3c(Br)c(N)c(Br)cc3o2)cc1

>  <unit-name>
%

>  <activity change, negative = inhibition>
4.22

$$$$
>  <compound>
COC(=O)CC1=C(C(=O)OC)C(c2ccc3c(c2Cl)OCO3)C(C#N)=C(N)O1 (configuration not stated)

>  <unit-name>
%

>  <activity change, negative = inhibition>
29.4

$$$$
>  <compound>
COCCCN1C(=O)C(O)=C(C(=O)c2ccco2)C1c1ccc(Br)cc1 (configuration not stated)

>  <unit-name>
%

>  <activity change, negative = inhibition>
-15.5

$$$$
>  <compound>
C1CNCCNCCNCCN1

>  <unit-name>
%

>  <activity change, negative = inhibition>
-9.33

$$$$

Task item: What does the data say about its activity change, negative = inhibition? Entry: "COc1ccc(C(=O)Nc2nc(N)n(-c3ccccc3)n2)cc1OC"
Reply: -0.0315

Task item: Another compound: "CC1(C)C/C(=C(/C#N)C(N)=O)CCO1"
Reply: -0.694

Task item: Now give it for "CCOC(=O)c1ccccc1OCc1cc(/C=N/n2cncn2)ccc1OC" too.
Reply: -21.7

Task item: Moving on to the next compound: O=C(CC(c1ccccc1)c1ccco1)N1CCOCC1 (configuration not stated)
Reply: -9.46

Task item: CCOc1ccc(/C(O)=C2/C(=O)C(=O)N(CCN(C)C)C2c2ccccc2)cc1Cl (configuration not stated) ?
Reply: 8.45

Task item: // next record "COc1ccc2cnn(-c3ccccc3C)c(=O)c2c1OC"
Reply: 10.7

Task item: What do we get for "O=c1/c(=C\c2cccn2-c2ccccc2)sc2nc3ccccc3n12" ?
Reply: 2.64

Task item: Would you kindly repeat that for "Nc1c(C(=O)NCc2ccco2)sc2nc(N3CCOCC3)c3c(c12)CCCC3" ?
Reply: -27.5

----------
- protocol-description: S16 Schwann cell PMP22 intronic element firefly luciferase assay (AID 624032); also: nearly all actives have a fitted effect of over 30% in size
- condition-set: S16 rat Schwann cells, PMP22 element FLuc, 24 h; series mostly up to 57.5 µM
Records with an inconclusive call do not appear. Calls of active or inactive are those of the source. The call rests on the fitted dose curve; in most records, active means well fitted inhibition curve with a large enough effect; inconclusive means small, poorly fitted or top-dose-only effect; inactive means no such curve, though single readings can be large or run the other way.
Mark one answer only. Choices: T (active), F (inactive)

Here are 5 compounds together with their reported answers.
>  <compound>
C[C@H]1[C@@H](OC(=O)CCC(=O)O)OC2OC3(C)CC[C@H]4[C@H](C)CC[C@@H]1[C@@]24OO3 (stereo not given in full)

>  <group>
T

$$$$
>  <compound>
CCCC(=O)Nc1c(I)cc(I)c(C[C@H](CC)C(=O)O)c1I

>  <group>
F

$$$$
>  <compound>
C=C1NC(=O)c2cc(CN(C)c3ccc(C(=O)N[C@@H](CCC(=O)O)C(=O)O)s3)ccc2N1

>  <group>
T

$$$$
>  <compound>
O=C(O)c1ccc(N[C@@H]2OC[C@@H](O)[C@@H](O)[C@@H]2O)cc1

>  <group>
F

$$$$
>  <compound>
CN[C@H](C)CCC=C(C)C

>  <group>
F

$$$$

Task item: Please let me know the test result on file for "CCOc1ccccc1O[C@@H](c1ccccc1)[C@@H]1CNCCO1" .
Reply: F

Task item: Also CC(=O)OCC(=O)[C@@]1(O)CCC2C3C[C@H](C)C4=CC(=O)C=CC4(C)C3C(O)CC21C (stereo not given in full) ?
Reply: F

Task item: Param item: CN1[C@H]2CC(OC(=O)[C@H](CO)c3ccccc3)C[C@H]1[C@H]1O[C@H]12 (stereo not given in full)
Reply: F

Task item: Try this compound next: NC(C(=O)O)c1ccc(O)cc1 (stereo not given)
Reply: F

Task item: Do the same for "C[C@@](Cc1ccccc1)(NC(=O)CN)c1ccccc1" please
Reply: F

----------
In this section we review reported activity change, negative = inhibition values for a set of compounds.
- protocol-description: AP1 Signaling Pathway (AID 357);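 also: ME-180 reporter cells stimulated with EGF at its EC50 level; % is scaled to controls: 0 for no effect and ±100 for the full control effect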
- condition-set: ME-180 (cervical carcinoma) AP-1-bla reporter, EGF-induced, beta-lactamase ratio, 5 h; at 17.2 µM (top of the series) unless noted
Records with an inconclusive call do not appear. Active and inactive are the calls of the source. Calls follow the shape of the dose curve; as a rule, active = well fitted curve in either direction with a large enough effect (not every such curve was filed as active); inconclusive = small, poorly fitted or top-dose-only effect, or another doubt; inactive = flat fitted curve, though single readings scatter.

>  <compound>
O=C(CN1C(=O)c2ccccc2C1=O)NCc1ccncc1

>  <activity change, negative = inhibition>
-3.15% (inactive)

$$$$
>  <compound>
COc1ccc(OC)c(C2=Nn3c(nnc3C3CCCCC3)SC2)c1

>  <activity change, negative = inhibition>
-18.2% (inactive)

$$$$
>  <compound>
COc1cc(C2C(C(=O)c3cccs3)=C(O)C(=O)N2c2cc(C)on2)ccc1O (stereo unspecified)

>  <activity change, negative = inhibition>
-2.96% (inactive)

$$$$
>  <compound>
Cc1ccc2[nH]c3c(c2c1)CN(C(=O)CN1CCCc2ccccc21)CC3

>  <activity change, negative = inhibition>
-22.5% (inactive)

$$$$
>  <compound>
O=C(O)CC(C(=O)OCCOc1ccccc1)N1CCOCC1 (stereo unspecified)

>  <activity change, negative = inhibition>
-4.83% (inactive)

$$$$

Task item: Report activity change, negative = inhibition for "Cc1cc(=O)oc2cc(OCC(=O)NCc3cccnc3)ccc12" please.
Reply: 0.0607% (inactive)

Task item: Do the same for CCn1c(SC(C)C(=O)O)nc2sc3c(c2c1=O)CCC3 (stereo unspecified) please
Reply: 2.76% (inactive)

Task item: Next record, please: "Cc1cc(C)nc(N(C#N)CN2C(=O)c3ccccc3C2=O)n1"
Reply: 2.24% (inactive)

Task item: Same lookup for "c1ccc2c(c1)CCC[C@H]2C1=NCCN1" , please.
Reply: 4.49% [at 38 µM] (inactive)

Task item: Try the compound "CC1(C)CC(=O)C=C(N=CC2=C(O)CC(C)(C)CC2=O)C1"
Reply: 4.05% (inactive)

Task item: Another compound to look at: CCC1CCCCN1c1nc(-c2ccncc2)nc2ccccc12 (stereo unspecified)
Reply: -20.7% (inactive)

----------
- System: C2A
- protocol-description: qHTS profiling for inhibitors of Plasmodium falciparum proliferation (AID 504749); also: nearly all actives have a fitted effect of over 60% in size
- condition-set: P. falciparum in erythrocytes, SYBR Green DNA, 72 h; series mostly up to 28.7 µM
Inconclusive results are not listed. Active and inactive are the calls of the source. The call rests on the fitted dose curve; in most records, active means well fitted inhibition curve with a large enough effect; inconclusive means small, poorly fitted or top-dose-only effect; inactive means flat fitted curve, though single readings scatter.
Classes to choose from: active, inactive

Example cases with answers are listed next.
>  <compound>
CC(=O)N[C@H]1[C@H](O[C@@H]2c3ccc(c(Cl)c3)Oc3cc4cc(c3O[C@@H]3O[C@H](CO)[C@@H](O)[C@H](O)C3C)Oc3ccc(cc3Cl)C[C@H]3NC(=O)[C@@H](N)c5ccc(O)c(c5)Oc5cc(O)cc(c5)[C@H](NC3=O)C(=O)N[C@H]4C(=O)N[C@H]3C(=O)N[C@@H]2C(=O)N[C@@H](C(=O)O)c2cc(O)cc(O[C@H]4O[C@H](CO)[C@@H](O)C(O)[C@@H]4O)c2-c2cc3ccc2O)O[C@H](CO)[C@@H](O)[C@@H]1O (stereo partly specified)

>  <group>
inactive

$$$$
>  <compound>
Cc1cnc(NC(=O)C2C(=O)c3ccccc3S(=O)(=O)N2C)s1 (stereo unspecified)

>  <group>
inactive

$$$$
>  <compound>
CC[C@H](C)[C@H]1O[C@]2(CC[C@@H]1C)C[C@@H]1C[C@@H](C/C=C(\C)[C@H](O[C@@H]3C[C@H](OC)[C@H](O[C@@H]4C[C@H](OC)[C@@H](O)[C@H](C)O4)[C@H](C)O3)[C@@H](C)/C=C/C=C3\CO[C@@H]4[C@H](O)C(C)=C[C@@H](C(=O)O1)[C@]34O)O2

>  <group>
active

$$$$
>  <compound>
C=C1C(n2cnc3c(=O)[nH]c(N)nc32)C[C@H](O)[C@H]1CO (stereo partly specified)

>  <group>
inactive

$$$$

Task item: How did this test come out for CC(=O)C1(O)Cc2c(O)c3c(c(O)c2C(OC2CC(N)C(O)C(C)O2)C1)C(=O)c1c(O)cccc1C3=O (stereo unspecified) ?
Reply: active

Task item: Then this compound: CC1(C)O[C@@H]2C[C@H]3[C@@H]4CCC5=CC(=O)C=C[C@]5(C)[C@H]4C(O)C[C@]3(C)[C@]2(C(=O)CO)O1 (stereo partly specified)
Reply: inactive
